- Test system: RAW-Dual (murine macrophage reporter line)
- experiment_notes: IRF reporter (Lucia luciferase) activity fold change vs agonist alone; higher = enhanced IRF activity
- assay_conditions: modulator concentration 10 µM; agonist: MPLA […]
Collected IRF reporter values appear next to each entry.

molecule: COc1ccc(CNC23CC4CC(CC(C4)C2)C3)cc1OC
system: RAW-Dual (murine macrophage reporter line)
IRF reporter: 1.1
//
molecule: CCC(C(=O)N1CCC2(CC1)CC2(F)F)c1ccccc1 (stereo not drawn)
system: RAW-Dual (murine macrophage reporter line)
IRF reporter: 1.36
//
molecule: COc1ccc(C=NNC(=O)C2COc3cc4ccccc4cc3O2)c(O)c1 (stereo not drawn)
system: RAW-Dual (murine macrophage reporter line)
IRF reporter: 1.1
//
molecule: COc1ccc2c(Cl)c(C(=O)N3CCc4ccccc4C3)sc2c1
system: RAW-Dual (murine macrophage reporter line)
IRF reporter: 1.48
//
molecule: COC(=O)C(CCSC)NC(=O)c1cc(OC)c(OC)c(OC)c1 (stereo not drawn)
system: RAW-Dual (murine macrophage reporter line)
IRF reporter: 1.07
//
molecule: Cc1cc(C)n(-c2ccc(=O)n(CCNS(=O)(=O)c3ccccc3F)n2)n1
system: RAW-Dual (murine macrophage reporter line)
IRF reporter: 1.13
//
molecule: Nc1nc(NC2CC2)c2ncn([C@H]3C=C[C@@H](CO)C3)c2n1.Nc1nc(NC2CC2)c2ncn([C@H]3C=C[C@@H](CO)C3)c2n1.O=S(=O)(O)O
system: RAW-Dual (murine macrophage reporter line)
IRF reporter: 1.07
//
molecule: COc1ccc(-c2oc3ccc(OC)cc3c2C(=O)Nc2ccccc2Cl)cc1
system: RAW-Dual (murine macrophage reporter line)
IRF reporter: 1.84

###

- Tested on: RAW-Dual (murine macrophage reporter line)
- experiment_notes: NF-kB reporter (SEAP) activity fold change vs agonist alone; higher = enhanced NF-kB activity
- assay_conditions: modulator concentration 10 µM; agonist: CpG ODN 1826 0.5 ug/mL
Property: NF-kB reporter; scope: individual molecules
measure: NF-kB reporter

molecule: CC(C(=O)O)c1ccc(C(=O)c2cccs2)cc1 (centres undefined)
measured_result: 1.17
--
molecule: O=C(NCc1cccc(Oc2ccccn2)c1)C1c2ccccc2Oc2ccccc21
measured_result: 0.52
--
molecule: CCOc1ccc(-c2nc3c(c(C)nn3-c3ccccc3)c3cc(OC)c(OC)cc23)cc1
measured_result: 0.812
--
molecule: CCOC(=O)Cc1nnnn1C
measured_result: 0.888
--
molecule: CC(C)OCc1ccc(C(=O)Nc2nnc(C(C)C)s2)o1
measured_result: 0.988
--
molecule: CSc1nc2cc(Oc3cccc(Cl)c3Cl)c(Cl)cc2[nH]1
measured_result: 0.416
--
molecule: COc1c(Cl)cc(C(=O)Nc2cccc(NC(=O)c3ccco3)c2)cc1Cl
measured_result: 1.15
--
molecule: CCOc1ccc(C=NNc2nc(C)cs2)c(O)c1
measured_result: 0.949
--
molecule: CSc1nc2cccc(F)c2c(=O)n1C1CC1
measured_result: 1.06
--
molecule: CC(C)NCC(O)COCCOc1ccc(C(C)(C)C)cc1.Cl (centres undefined)
measured_result: 0.593
--
molecule: O=C(Nc1ccc([N+](=O)[O-])cc1Cl)c1cc(Cl)ccc1O
measured_result: 1.12
--
molecule: CC(NCCC(c1ccccc1)c1ccccc1)c1ccccc1.Cl (centres undefined)
measured_result: 0.274
--
molecule: O=C(CCC(=O)Nc1ccccc1)NN=Cc1ccc(Cl)cc1
measured_result: 1.01
--
molecule: CN(C)CCNC(=O)C(=O)NC(c1ccccc1)c1ccccc1
measured_result: 1.03
--
molecule: O=C(c1ccc(I)cc1)N(C1CCCCC1)C1CCCCC1
measured_result: 0.976
--
molecule: CC(C)(O)c1ccccc1CC[C@@H](SCC1(CC(=O)O)CC1)c1cccc(/C=C/c2ccc3ccc(Cl)cc3n2)c1
measured_result: 1.1
--
molecule: N#CCCC1(CCC#N)S(=O)(=O)CC(c2ccc(Cl)cc2)CS1(=O)=O
measured_result: 0.67
--
molecule: CCOC(=O)[C@@H](N)Cc1ccc(-c2cc(O[C@H](c3ccc(Cl)cc3-n3ccc(C)n3)C(F)(F)F)nc(N)n2)cc1.O=C(O)CNC(=O)c1ccccc1
measured_result: 0.504
--
molecule: Cc1cc(CNC(=O)CCc2ccc(C(F)(F)F)cc2)c(C)o1
measured_result: 1.09
--
molecule: O=C(CC12CC3CC(CC(C3)C1)C2)N1CCCCC1
measured_result: 0.863
--
molecule: O=C(C=Cc1ccccc1)NC(NC(=S)Nc1cccc(O)c1)C(Cl)(Cl)Cl (centres undefined)
measured_result: 0.835
--
molecule: NC[C@@H]1O[C@H](O[C@@H]2[C@@H](CO)OC(O[C@@H]3[C@@H](O)[C@H](N)C[C@H](N)[C@H]3O[C@H]3O[C@H](CN)[C@@H](O)[C@H](O)[C@H]3N)[C@@H]2O)[C@H](N)[C@@H](O)[C@@H]1O.O=S(=O)(O)O (some centres undefined)
measured_result: 0.993
--
molecule: Cc1ccccc1CC(CC(=O)O)C(=O)O (centres undefined)
measured_result: 1.1
--
molecule: COc1nc(C)cnc1NS(=O)(=O)c1cccnc1-c1ccc(-c2nnco2)cc1
measured_result: 0.964
--
molecule: Cc1ccc(COc2ccc3c(C)c(C)c(=O)oc3c2C)cc1
measured_result: 0.785
--
molecule: CCOC(=O)Nc1ccc(NCc2ccc(F)cc2)nc1N.O=C(O)/C=C/C(=O)O
measured_result: 1.21
--
molecule: COc1cc(C=NNC(=O)CSc2ccccn2)cc(Cl)c1O
measured_result: 1.16
--
molecule: Cc1occc1C(=O)Nc1ccc([N+](=O)[O-])cc1Cl
measured_result: 0.88
--
molecule: CS(=O)(=O)O.Cc1ccc(N(CC2=NCCN2)c2cccc(O)c2)cc1
measured_result: 0.981
--
molecule: CSCCC(NC(C)=O)C(=O)N1CCc2nc3ccc(F)cn3c(=O)c2C1 (centres undefined)
measured_result: 1.05
--
molecule: c1ccc(OCc2nnc(-c3ccccc3)o2)cc1
measured_result: 1.15
--
molecule: COC(c1ccccc1)(c1ccccc1)C(Oc1nc(C)cc(C)n1)C(=O)O (centres undefined)
measured_result: 0.986
--
molecule: CC(C)CC(C(=O)Nc1cccc(O)c1)N1C(=O)c2ccccc2C1=O (centres undefined)
measured_result: 0.947
--
molecule: CCN1CCCC1CNC(=O)c1cc(S(N)(=O)=O)ccc1OC (centres undefined)
measured_result: 1.01
